Data origin, for the record: patent US20150272951A1

# testSystem: Hex A (Homo sapiens, UniProt P06865+P07686)
# Sequence (P06865 89-529): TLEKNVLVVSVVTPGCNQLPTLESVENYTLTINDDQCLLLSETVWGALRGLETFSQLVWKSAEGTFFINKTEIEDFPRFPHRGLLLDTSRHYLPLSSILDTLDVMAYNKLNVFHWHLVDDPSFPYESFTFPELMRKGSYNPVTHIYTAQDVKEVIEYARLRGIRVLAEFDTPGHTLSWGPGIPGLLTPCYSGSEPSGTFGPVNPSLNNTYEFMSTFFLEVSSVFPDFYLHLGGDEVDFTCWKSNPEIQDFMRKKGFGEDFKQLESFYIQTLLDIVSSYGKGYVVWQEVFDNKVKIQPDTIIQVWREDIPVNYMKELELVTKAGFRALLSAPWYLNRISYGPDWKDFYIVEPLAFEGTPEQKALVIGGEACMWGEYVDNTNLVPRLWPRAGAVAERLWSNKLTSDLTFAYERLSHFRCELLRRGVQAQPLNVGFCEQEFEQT
# Sequence (P07686 122-311 limits assumed): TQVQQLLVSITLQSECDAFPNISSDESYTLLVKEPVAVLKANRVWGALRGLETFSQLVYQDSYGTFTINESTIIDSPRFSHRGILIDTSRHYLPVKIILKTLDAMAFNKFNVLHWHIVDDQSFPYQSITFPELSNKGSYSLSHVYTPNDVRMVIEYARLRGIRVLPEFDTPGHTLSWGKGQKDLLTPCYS
# Sequence (P07686 315-556 limits assumed): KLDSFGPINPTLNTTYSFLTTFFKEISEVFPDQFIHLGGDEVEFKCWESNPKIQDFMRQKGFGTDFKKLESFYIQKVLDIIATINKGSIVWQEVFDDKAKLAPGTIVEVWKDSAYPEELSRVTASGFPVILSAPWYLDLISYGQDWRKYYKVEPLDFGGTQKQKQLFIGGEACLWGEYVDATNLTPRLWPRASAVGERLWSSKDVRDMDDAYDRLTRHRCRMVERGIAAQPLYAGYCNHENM
# assayInfo: Hex A inhibition (IC50 from dose response curves of Hex A residual activity)
# experimentalConditions: read-out: IC50 HexA pH 7; purified HexA, pH 7
pIC50: −log10 of the molar value.

{"smilesString": "CCc1nc(N)nc(N)c1-c1ccccc1", "pIC50": 4.96}

====

# testSystem: Hex A (Homo sapiens, UniProt P06865+P07686)
# assayInfo: Hex A inhibition (IC50 from dose response curves of Hex A residual activity);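 note: remaining Hex A enzyme activity recorded across rising inhibitor doses, with dose response curves run at pH 6.5 and again at pH 4.5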
# experimentalConditions: IC50 (μM), without error; pH not stated
metricName: log10(IC50) (log10 of the value in µM)

{"compound": "CCCc1nc(N)nc(N)c1-c1ccccc1", "testSystem": "Hex A (Homo sapiens, UniProt P06865+P07686)", "readoutNumber": 1.56}
{"compound": "CCCc1nc(N)nc(N)c1-c1ccc(F)cc1 [ksh3-33a]", "testSystem": "Hex A (Homo sapiens, UniProt P06865+P07686)", "readoutNumber": 1.59}
{"compound": "CCCCc1nc(N)nc(N)c1-c1ccc(C(F)(F)F)cc1", "testSystem": "Hex A (Homo sapiens, UniProt P06865+P07686)", "readoutNumber": 2.15}
{"compound": "CCc1nc(N)nc(N)c1-c1ccc(F)cc1", "testSystem": "Hex A (Homo sapiens, UniProt P06865+P07686)", "readoutNumber": 1.70}
{"compound": "CCCc1nc(N)nc(N)c1-c1cc(C)cc(C)c1 [ksh3.33e]", "testSystem": "Hex A (Homo sapiens, UniProt P06865+P07686)", "readoutNumber": 1.39}
{"compound": "NCc1nc(N)nc(N)c1-c1ccc(Cl)cc1", "testSystem": "Hex A (Homo sapiens, UniProt P06865+P07686)", "readoutNumber": 2.25}
{"compound": "CCc1nc(N)nc(N)c1-c1ccc(C(F)(F)F)cc1 [jts16]", "testSystem": "Hex A (Homo sapiens, UniProt P06865+P07686)", "readoutNumber": 1.25}
{"compound": "CCc1nc(N)nc(N)c1-c1cccc(C)c1 [ksh3-19d]", "testSystem": "Hex A (Homo sapiens, UniProt P06865+P07686)", "readoutNumber": 1.54}
{"compound": "CCCc1nc(N)nc(N)c1-c1ccc(OC)cc1", "testSystem": "Hex A (Homo sapiens, UniProt P06865+P07686)", "readoutNumber": 1.45}
{"compound": "CCc1nc(N)nc(N)c1-c1ccccc1C [ksh3-19c]", "testSystem": "Hex A (Homo sapiens, UniProt P06865+P07686)", "readoutNumber": 1.64}
{"compound": "CCCc1nc(N)nc(N)c1-c1ccc(C)cc1", "testSystem": "Hex A (Homo sapiens, UniProt P06865+P07686)", "readoutNumber": 1.45}
{"compound": "CCc1nc(N)nc(N)c1-c1ccc(C)cc1 [ksh3-19b]", "testSystem": "Hex A (Homo sapiens, UniProt P06865+P07686)", "readoutNumber": 1.86}
{"compound": "CCc1nc(N)nc(N)c1-c1cccs1", "testSystem": "Hex A (Homo sapiens, UniProt P06865+P07686)", "readoutNumber": 1.49}
{"compound": "CCc1nc(N)nc(N)c1-c1ccsc1", "testSystem": "Hex A (Homo sapiens, UniProt P06865+P07686)", "readoutNumber": 1.74}
{"compound": "CCCc1nc(N)nc(N)c1-c1ccc(C(F)(F)F)cc1", "testSystem": "Hex A (Homo sapiens, UniProt P06865+P07686)", "readoutNumber": 1.20}
{"compound": "CCCc1nc(N)nc(N)c1-c1cccc(C)c1 [ksh3.33d]", "testSystem": "Hex A (Homo sapiens, UniProt P06865+P07686)", "readoutNumber": 1.70}
{"compound": "CC(C)c1nc(N)nc(N)c1-c1ccc(Cl)cc1", "testSystem": "Hex A (Homo sapiens, UniProt P06865+P07686)", "readoutNumber": 2.61}
{"compound": "Cc1nc(N)nc(N)c1-c1ccc(Cl)cc1", "testSystem": "Hex A (Homo sapiens, UniProt P06865+P07686)", "readoutNumber": 2.75}
{"compound": "CCc1nc(N)nc(N)c1-c1ccc(C(F)(F)F)cc1 [vsa5]", "testSystem": "Hex A (Homo sapiens, UniProt P06865+P07686)", "readoutNumber": 1.17}
